- ASSAYED TARGET: Delta-aminolevulinic acid dehydratase (Wolbachia sp. subsp. Brugia malayi (strain TRS), UniProt Q5GSR3)
- Sequence (Q5GSR3 whole entry): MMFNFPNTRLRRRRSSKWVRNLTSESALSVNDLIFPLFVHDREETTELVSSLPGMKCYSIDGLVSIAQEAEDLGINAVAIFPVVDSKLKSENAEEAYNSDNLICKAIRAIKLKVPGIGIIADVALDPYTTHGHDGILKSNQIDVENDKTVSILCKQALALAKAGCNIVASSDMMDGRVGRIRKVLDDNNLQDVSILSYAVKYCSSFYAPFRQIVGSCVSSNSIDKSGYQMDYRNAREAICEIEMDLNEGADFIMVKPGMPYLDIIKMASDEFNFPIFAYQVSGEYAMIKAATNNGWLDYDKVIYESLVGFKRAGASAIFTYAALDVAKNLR
- PROCEDURE TEXT: Inhibition of C-terminal His-tagged Wolbachia PBGS using 5-ALA as substrate
ENDPOINT NAME: pIC50
Notebook: values listed as pIC50 are -log10 of the concentration (mol/L).

Solved entries:
{"INPUT SMILES": "Cc1cccc(Cn2cnc3cc(C(=O)O)ccc32)c1", "ENDPOINT NAME": "pIC50", "OBS VALUE": 3.87}
{"INPUT SMILES": "O=C(O)c1ccc2c(c1)ncn2Cc1ccc(C(F)(F)F)cc1", "ENDPOINT NAME": "pIC50", "OBS VALUE": 4.06}
{"INPUT SMILES": "O=C(O)c1ccc2c(c1)ncn2Cc1ccccc1C(F)(F)F", "ENDPOINT NAME": "pIC50", "OBS VALUE": 3.53}
{"INPUT SMILES": "O=C(NCCc1nc2cccc(C(=O)O)c2n1Cc1cccc(C(F)(F)F)c1)c1cccs1", "ENDPOINT NAME": "pIC50", "OBS VALUE": 3.79}
{"INPUT SMILES": "O=C(NCCc1nc2c(C(=O)O)cccc2n1Cc1cccc(C(F)(F)F)c1)c1cccs1", "ENDPOINT NAME": "pIC50", "OBS VALUE": 3.30}

// pIC50 lookup, key: `O=C(O)c1ccc2nc(CCNC(=O)c3cccs3)n(Cc3cccc(C(F)(F)F)c3)c2c1`
3.50

// pIC50 lookup, key: `O=C(O)c1ccc2[nH]c(CCNC(=O)c3cccs3)nc2c1`
3.30

====

- ASSAYED TARGET: Delta-aminolevulinic acid dehydratase (Yersinia enterocolitica W22703) (UniProt F4MUJ9)
- Sequence (F4MUJ9 as listed by the source): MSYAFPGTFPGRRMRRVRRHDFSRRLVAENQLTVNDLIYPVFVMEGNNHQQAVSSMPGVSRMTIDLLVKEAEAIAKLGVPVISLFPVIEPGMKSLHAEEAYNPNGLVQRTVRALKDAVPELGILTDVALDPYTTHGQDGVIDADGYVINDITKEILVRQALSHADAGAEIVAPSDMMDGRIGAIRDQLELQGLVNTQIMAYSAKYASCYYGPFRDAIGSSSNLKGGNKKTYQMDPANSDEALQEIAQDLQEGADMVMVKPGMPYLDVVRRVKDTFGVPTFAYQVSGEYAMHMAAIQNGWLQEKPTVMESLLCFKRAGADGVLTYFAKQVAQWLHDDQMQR
- PROCEDURE TEXT: Stimulation of Yersinia enterocolitica recombinant PBGS expressed in Escherichia coli using 5-ALA as substrate at […]
ENDPOINT NAME: Smax (%)
# value in %; strip the unit string

Solved entries:
{"INPUT SMILES": "Cn1cnc2cc(C(=O)O)ccc21", "ASSAYED TARGET": "Delta-aminolevulinic acid dehydratase (Yersinia enterocolitica W22703) (UniProt F4MUJ9)", "Smax (%)": 100}
{"INPUT SMILES": "O=C(O)c1ccc2c(c1)ncn2Cc1ccc(C(F)(F)F)cc1", "ASSAYED TARGET": "Delta-aminolevulinic acid dehydratase (Yersinia enterocolitica W22703) (UniProt F4MUJ9)", "Smax (%)": 100}
{"INPUT SMILES": "O=C(O)c1ccc2nc(CCNC(=O)c3cccs3)n(Cc3cccc(C(F)(F)F)c3)c2c1", "ASSAYED TARGET": "Delta-aminolevulinic acid dehydratase (Yersinia enterocolitica W22703) (UniProt F4MUJ9)", "Smax (%)": 131}

// Smax lookup, key: `O=C(O)c1ccc2c(c1)ncn2Cc1ccccc1`
100

// Smax lookup, key: `O=C(O)c1c2c(nc3ccccc13)CCN(C(=O)c1cccc(C(F)(F)F)c1)C2`
100

// Smax lookup, key: `Cc1cccc(Cn2cnc3cc(C(=O)O)ccc32)c1`
100

// Smax lookup, key: `O=C(O)c1ccc2[nH]cnc2c1`
100

// Smax lookup, key: `O=C(NCCc1nc2cccc(C(=O)O)c2n1Cc1cccc(C(F)(F)F)c1)c1cccs1`
118

// Smax lookup, key: `COc1cccc(Cn2cnc3cc(C(=O)O)ccc32)c1`
100

// Smax lookup, key: `O=C(O)c1ccc2[nH]c(CCNC(=O)c3cccs3)nc2c1`
100

// Smax lookup, key: `O=C(O)c1ccc2c(c1)ncn2Cc1ccccc1C(F)(F)F`
100

// Smax lookup, key: `O=C(O)c1ccc2c(c1)ncn2Cc1cccc(C(F)(F)F)c1`
100

====

- ASSAYED TARGET: Delta-aminolevulinic acid dehydratase, chloroplastic (Pisum sativum)
- PROCEDURE TEXT: Inhibition of Pisum sativum PBGS using 5-ALA as substrate
Readings of IC50 for the listed compounds

Solved entries:
{"INPUT SMILES": "O=C(O)c1c2c(nc3ccccc13)CCN(C(=O)c1cccc(C(F)(F)F)c1)C2", "IC50": "88.2 µM"}
{"INPUT SMILES": "Cn1cnc2cc(C(=O)O)ccc21", "IC50": "257 µM"}
{"INPUT SMILES": "O=C(O)c1ccc2c(c1)ncn2Cc1ccccc1", "IC50": "182 µM"}
{"INPUT SMILES": "O=C(O)c1ccc2c(c1)ncn2Cc1ccc(C(F)(F)F)cc1", "IC50": "43.1 µM"}
{"INPUT SMILES": "O=C(O)c1ccc2c(c1)ncn2Cc1ccccc1C(F)(F)F", "IC50": "64.3 µM"}

// IC50 lookup, key: `Cc1cccc(Cn2cnc3cc(C(=O)O)ccc32)c1`
95.9 µM

// IC50 lookup, key: `O=C(O)c1ccc2c(c1)ncn2Cc1cccc(C(F)(F)F)c1`
18.5 µM

// IC50 lookup, key: `O=C(O)c1ccc2c(c1)nc(CCNC(=O)c1cccs1)n2Cc1cccc(C(F)(F)F)c1`
10.6 µM

// IC50 lookup, key: `O=C(NCCc1nc2cccc(C(=O)O)c2n1Cc1cccc(C(F)(F)F)c1)c1cccs1`
> 500 µM

// IC50 lookup, key: `COc1cccc(Cn2cnc3cc(C(=O)O)ccc32)c1`
155 µM

// IC50 lookup, key: `O=C(O)c1ccc2[nH]cnc2c1`
> 500 µM

// IC50 lookup, key: `O=C(O)c1ccc2[nH]c(CCNC(=O)c3cccs3)nc2c1`
114 µM

====

- ASSAYED TARGET: Delta-aminolevulinic acid dehydratase (Wolbachia sp. subsp. Brugia malayi (strain TRS))
- PROCEDURE TEXT: Inhibition of C-terminal His-tagged Wolbachia PBGS using 5-ALA as substrate
Readings of pIC50 for the listed compounds
Notebook: values listed as pIC50 are -log10 of the concentration (mol/L).

// pIC50 lookup, key: `O=C(O)c1ccc2c(c1)ncn2Cc1cccc(C(F)(F)F)c1`
4.89

// pIC50 lookup, key: `COc1cccc(Cn2cnc3cc(C(=O)O)ccc32)c1`
3.69

// pIC50 lookup, key: `O=C(O)c1ccc2c(c1)ncn2Cc1ccccc1`
3.71

// pIC50 lookup, key: `O=C(O)c1ccc2c(c1)nc(CCNC(=O)c1cccs1)n2Cc1ccc(C(F)(F)F)cc1`
4.41

// pIC50 lookup, key: `O=C(O)c1ccc2c(c1)nc(CCNC(=O)c1cccs1)n2Cc1cccc(C(F)(F)F)c1`
4.95

// pIC50 lookup, key: `O=C(O)c1ccc2[nH]cnc2c1`
3.30

====

- ASSAYED TARGET: Delta-aminolevulinic acid dehydratase, chloroplastic (Pisum sativum, UniProt P30124)
- Sequence (P30124 whole entry): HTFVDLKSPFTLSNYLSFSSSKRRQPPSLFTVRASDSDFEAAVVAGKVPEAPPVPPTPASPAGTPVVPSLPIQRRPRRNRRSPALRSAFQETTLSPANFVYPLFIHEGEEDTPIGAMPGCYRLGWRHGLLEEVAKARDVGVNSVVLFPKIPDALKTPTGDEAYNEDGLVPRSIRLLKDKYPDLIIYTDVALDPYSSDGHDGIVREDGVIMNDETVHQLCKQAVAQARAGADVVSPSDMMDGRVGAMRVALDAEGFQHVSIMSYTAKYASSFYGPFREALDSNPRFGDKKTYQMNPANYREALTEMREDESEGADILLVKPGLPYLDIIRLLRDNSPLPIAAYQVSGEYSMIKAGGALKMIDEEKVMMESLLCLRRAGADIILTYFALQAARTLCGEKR
- PROCEDURE TEXT: Inhibition of Pisum sativum PBGS using 5-ALA as substrate
Readings of pIC50 for the listed compounds
Notebook: values listed as pIC50 are -log10 of the concentration (mol/L).

// pIC50 lookup, key: `O=C(O)c1ccc2c(c1)nc(CCNC(=O)c1cccs1)n2Cc1ccc(C(F)(F)F)cc1`
4.35

// pIC50 lookup, key: `O=C(O)c1ccc2nc(CCNC(=O)c3cccs3)n(Cc3cccc(C(F)(F)F)c3)c2c1`
4.05
